target_system: IGF2 (human, UniProt P01344)
experimental_details: SPR
pKd: −log10 of the molar value.
measurement_name: pKd

[
  {
    "binder": "DVD029 IGF1,2 arm (antibody, V domains shown, DVD-Ig inner) VH: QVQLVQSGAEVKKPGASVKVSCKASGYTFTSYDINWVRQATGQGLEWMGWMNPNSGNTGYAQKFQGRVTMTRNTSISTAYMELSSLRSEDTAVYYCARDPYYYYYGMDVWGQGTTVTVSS VL: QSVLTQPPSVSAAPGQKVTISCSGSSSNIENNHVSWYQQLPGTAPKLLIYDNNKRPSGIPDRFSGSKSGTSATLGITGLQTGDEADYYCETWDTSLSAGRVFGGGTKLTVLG",
    "measurement_name": "pKd",
    "reported_value": 9.52
  }
]

Sourced from patent US9029508
